PROTOCOL: Tmax in guinea pig infected with 10^6 CFU Microsporum canis B68128 at 40 mg/kg, po administered 2 hrs before infection for 5 days
Assay type: ADME, organism-based, Cavia porcellus
Design: dose 40 mg/kg, route oral
STUDY_CONDITIONS: in vivo
READOUT_TYPE: Tmax (h)
One number for each entry, in h.

Tmax measured on CC(C)N1CCN(c2ccc(N3CCN(c4ccc(OC[C@H]5OC[C@](Cn6cncn6)(c6ccc(F)cc6F)O5)cc4)CC3)cc2)C1=O = 4

---

PROTOCOL: Half life in guinea pig infected with 10^6 CFU Microsporum canis B68128 at 40 mg/kg, po administered 2 hrs before infection for 5 days
Assay type: ADME, organism-based, Cavia porcellus
Parameters: dose 40 mg/kg, route oral
STUDY_CONDITIONS: in vivo
READOUT_TYPE: half-life (h)
Answers are plain numbers, in h.

half-life measured on CC(C)N1CCN(c2ccc(N3CCN(c4ccc(OC[C@H]5OC[C@](Cn6cncn6)(c6ccc(F)cc6F)O5)cc4)CC3)cc2)C1=O [PRAMICONAZOLE] = 23

---

Would you mind telling me the reported CC50 of each entry?
PROTOCOL: Cytotoxicity against human MRC5 cells
Type: cell-based
Answers are plain numbers, in µM.

Some entries whose results are on file:
{"COMPOUND": "CN(C/C=C/C#CC(C)(C)C)Cc1cccc2ccccc12", "VALUE_UNIT": "µM", "DATA_VALUE": 63}
{"COMPOUND": "Clc1ccc(COC(Cn2ccnc2)c2ccc(Cl)cc2Cl)c(Cl)c1 (centres undefined)", "VALUE_UNIT": "µM", "DATA_VALUE": 29.7}
{"COMPOUND": "CC(C)N1CCN(c2ccc(N3CCN(c4ccc(OC[C@H]5OC[C@](Cn6cncn6)(c6ccc(F)cc6F)O5)cc4)CC3)cc2)C1=O", "VALUE_UNIT": "µM", "DATA_VALUE": 53.3}

// below: CC50 requested for another compound
CC50 measured on CCC(C)n1ncn(-c2ccc(N3CCN(c4ccc(OCC5COC(Cn6cncn6)(c6ccc(Cl)cc6Cl)O5)cc4)CC3)cc2)c1=O (centres undefined) = 49.3

---

PROTOCOL: Half life in guinea pig infected with 10^6 CFU Microsporum canis B68128 at 20 mg/kg, po administered 2 hrs before infection for 5 days
Format: ADME, organism-based, Cavia porcellus
Parameters: dose 20 mg/kg, route oral
STUDY_CONDITIONS: in vivo
READOUT_TYPE: half-life (h)
One number for each entry, in h.

half-life measured on CCC(C)n1ncn(-c2ccc(N3CCN(c4ccc(OCC5COC(Cn6cncn6)(c6ccc(Cl)cc6Cl)O5)cc4)CC3)cc2)c1=O (stereo unspecified) = 13.9

---

PROTOCOL: Cmax in plasma of guinea pig infected with 10^6 CFU Microsporum canis B68128 at 40 mg/kg, po administered 2 hrs before infection for 5 days
Format: ADME, organism-based, Cavia porcellus
Set-up: dose 40 mg/kg, route oral
READOUT_TYPE: Cmax (ng/mL)
Answers are plain numbers, in ng/mL.

Cmax measured on CC(C)N1CCN(c2ccc(N3CCN(c4ccc(OC[C@H]5OC[C@](Cn6cncn6)(c6ccc(F)cc6F)O5)cc4)CC3)cc2)C1=O = 180

---

Would you mind telling me the reported pIC50 of each entry?
Tested on: Microsporum canis
PROTOCOL: Antifungal activity against 5 x 10^6 CFU/ml Microsporum canis B68128 by resazurin based fluorimetry assay
Format: functional, organism-based
Numbers only, as −log10 of the molar value.

Some entries whose results are on file:
{"COMPOUND": "CC(C)N1CCN(c2ccc(N3CCN(c4ccc(OC[C@H]5OC[C@](Cn6cncn6)(c6ccc(F)cc6F)O5)cc4)CC3)cc2)C1=O [PRAMICONAZOLE]", "pIC50": 6.74}
{"COMPOUND": "CN(C/C=C/C#CC(C)(C)C)Cc1cccc2ccccc12 [TERBINAFINE]", "pIC50": 7.00}
{"COMPOUND": "Clc1ccc(COC(Cn2ccnc2)c2ccc(Cl)cc2Cl)c(Cl)c1 (centres undefined) [MICONAZOLE]", "pIC50": 6.64}

pIC50 measured on CCC(C)n1ncn(-c2ccc(N3CCN(c4ccc(OCC5COC(Cn6cncn6)(c6ccc(Cl)cc6Cl)O5)cc4)CC3)cc2)c1=O (centres undefined) [ITRACONAZOLE] = 5.69

---

PROTOCOL: Tmax in guinea pig infected with 10^6 CFU Microsporum canis B68128 at 10 mg/kg, po administered 2 hrs before infection for 5 days
Type: ADME, organism-based, Cavia porcellus
Design: dose 10 mg/kg, route oral
STUDY_CONDITIONS: in vivo
READOUT_TYPE: Tmax (min)
One number for each entry, in min.

Tmax measured on CN(C/C=C/C#CC(C)(C)C)Cc1cccc2ccccc12 [TERBINAFINE] = 42
